- Tested on: Trypanosoma cruzi
- protocol-summary: Antitrypanosomal activity against Trypanosoma cruzi IRHOD/CO/2008/SN3;DTU 1 amastigote forms measured after 72 hrs by Giemsa staining based assay
- Type: functional, organism-based
- test-context: IRHOD/CO/2008/SN3;DTU 1, 72 h
pIC50: −log10 of the molar value.
Item-by-item account of pIC50

{"columns": ["compound", "pIC50"],
 "data": [
  ["COc1ccc(C(=O)CCNCCc2ccc(C(F)(F)F)cc2)cc1", 5.35],
  ["O=C(CCN1CCN(c2ccc(Cl)cc2)CC1)c1ccc(O)cc1", 5.35],
  ["COc1ccc(C(=O)CCNc2ccc(Cl)cc2)cc1", 5.22],
  ["O=C(CCN1CCN(c2ccc(C(F)(F)F)cc2)CC1)c1ccc(O)cc1", 5.18],
  ["O=C(Cn1ccnc1[N+](=O)[O-])NCc1ccccc1 [BENZNIDAZOLE]", 5.36],
  ["COc1ccc(C(=O)CCNc2ccc(F)cc2)cc1", 5.27]
]}
